System: Calu-3
assay-protocol: Proliferation-inhibiting effect on tumor cells (SRB or MTT assay)
Type: cell-based
condition: Homo sapiens, Calu-3, 144 h, read-out: IC50 (nM) 2nd experiment
quantity-kind: IC50 (nM)

molecule: CC[C@@]1(O)C(=O)OCc2c1cc1n(c2=O)Cc2c-1nc1ccc(N)c3c1c2C(F)(F)CC3 [Compound 3]
measured-result: 0.4

---

Measured Emax by item
Test system: BxPC-3 human pancreatic adenocarcinoma cells
assay-protocol: Comparative study of the activity of camptothecins (CCK-8 cell killing)
Assay type: cell-based
condition: Homo sapiens, BXPC-3, 96 h, read-out: Maximum Killing (%), BxPC-3, killing days 4 days
quantity-kind: Emax (%)

molecule: CC[C@@]1(O)C(=O)OCc2c1cc1n(c2=O)Cc2c-1nc1ccc(N)c3c1c2C(F)(F)CO3
tested-target: BxPC-3 human pancreatic adenocarcinoma cells
measured-result: 93.7
--
molecule: CC[C@@]1(O)C(=O)OCc2c1cc1n(c2=O)Cc2c-1nc1ccc(N)c3c1c2C1CC1C3 (stereo partly shown)
tested-target: BxPC-3 human pancreatic adenocarcinoma cells
measured-result: 94.4
--
molecule: CC[C@@]1(O)C(=O)OCc2c1cc1n(c2=O)Cc2c-1nc1cc(F)c(N)c3c1c2C(F)(F)CO3
tested-target: BxPC-3 human pancreatic adenocarcinoma cells
measured-result: 97.4
--
molecule: CC[C@@]1(O)C(=O)OCc2c1cc1n(c2=O)Cc2c-1nc1ccc(N)c3c1c2CCS3
tested-target: BxPC-3 human pancreatic adenocarcinoma cells
measured-result: 98.5
--
molecule: CC[C@@]1(O)C(=O)OCc2c1cc1n(c2=O)Cc2c-1nc1ccc(N)c3c1c2C(F)(F)CC3
tested-target: BxPC-3 human pancreatic adenocarcinoma cells
measured-result: 98
--
molecule: CC[C@@]1(O)C(=O)OCc2c1cc1n(c2=O)Cc2c-1nc1cc(F)c(N)c3c1c2C(F)(F)CC3
tested-target: BxPC-3 human pancreatic adenocarcinoma cells
measured-result: 99.2
--
molecule: CC[C@@]1(O)C(=O)OCc2c1cc1n(c2=O)Cc2c-1nc1ccc(N)c3c1c2CC[S@@+]3[O-] [Compound 14-P2]
tested-target: BxPC-3 human pancreatic adenocarcinoma cells
measured-result: 43.3
